test: Plasma pharmacokinetics in rats after oral administration of Yizhi tablets, EPT or EPG (HPLC-ESI/MS); format: in vivo, Sprague-Dawley rats; conditions: male, Sprague-Dawley, in vivo; rat plasma, oral EPT 5.4 g/kg, n = 6
quantity: Tmax (min)

smiles_notation=OCc1ccc(O[C@@H]2O[C@H](CO)[C@@H](O)[C@H](O)[C@H]2O)cc1 test_value=21.7

---

experiment: Plasma pharmacokinetics in rats after oral administration of Yizhi tablets, EPT or EPG (HPLC-ESI/MS); format: in vivo, Sprague-Dawley rats; details: male, Sprague-Dawley; rat plasma, oral EPT 5.4 g/kg, n = 6
quantity: AUC(0-inf) (ng·h/mL)

compound="OCc1ccc(O)cc1 [HBA, p-hydroxybenzyl alcohol]" test_value=34700

---

assay: Plasma pharmacokinetics in rats after oral administration of Yizhi tablets, EPT or EPG (HPLC-ESI/MS); assay type: in vivo, Sprague-Dawley rats; settings: male, Sprague-Dawley, in vivo; rat plasma, oral EPG 3.6 g/kg, n = 6
quantity: Cmax (ng/mL)

smiles_notation=CC[C@H]1CN2CC[C@]3(C(=O)Nc4ccccc43)[C@@H]2C[C@@H]1/C(=C\OC)C(=O)OC quantity=Cmax u=ng/mL test_value=6170

---

Measured Tmax of individual entries
experiment: Plasma pharmacokinetics in rats after oral administration of Yizhi tablets, EPT or EPG (HPLC-ESI/MS); format: in vivo, Sprague-Dawley rats; conditions: male, Sprague-Dawley, in vivo; rat plasma, oral Yizhi tablets 9 g/kg, n = 6
quantity: Tmax (h)

compound="CC[C@H]1CN2CC[C@]3(C(=O)Nc4ccccc43)[C@@H]2C[C@@H]1/C(=C\\OC)C(=O)OC [RIN, rhynchophylline]" quantity=Tmax test_value=4
compound="OCc1ccc(O[C@@H]2O[C@H](CO)[C@@H](O)[C@H](O)[C@H]2O)cc1 [GAS, Gastrodin]" quantity=Tmax test_value=0.75

---

assay: Plasma pharmacokinetics in rats after oral administration of Yizhi tablets, EPT or EPG (HPLC-ESI/MS); format: in vivo, Sprague-Dawley rats; conditions: male, Sprague-Dawley; rat plasma, oral Yizhi tablets 9 g/kg, n = 6
quantity: AUC(0-inf) (ng·h/mL)

molecule="OCc1ccc(O)cc1 [HBA, p-hydroxybenzyl alcohol]" quantity=AUC(0-inf) test_value=52200

---

assay: Plasma pharmacokinetics in rats after oral administration of Yizhi tablets, EPT or EPG (HPLC-ESI/MS); type: in vivo, Sprague-Dawley rats; conditions: male, Sprague-Dawley, rat, in vivo, po, 9 g/kg, text value matching the Yizhi tablet group (oral 9 g/kg)
quantity: AUC(0-t)

smiles_notation=CC[C@H]1CN2CC[C@]3(C(=O)Nc4ccccc43)[C@@H]2C[C@@H]1/C(=C\OC)C(=O)OC quantity=AUC(0-t) test_value="29.7 µg·h/mL"
smiles_notation=OCc1ccc(O[C@@H]2O[C@H](CO)[C@@H](O)[C@H](O)[C@H]2O)cc1 quantity=AUC(0-t) test_value="230 µg·h/mL"

---

experiment: Plasma pharmacokinetics in rats after oral administration of Yizhi tablets, EPT or EPG (HPLC-ESI/MS); assay type: in vivo, Sprague-Dawley rats; settings: male, Sprague-Dawley, in vivo; rat plasma, oral EPG 3.6 g/kg, n = 6; read-out: MRT(0–t) (converted)
quantity: MRT last (h)

smiles_notation=CC[C@H]1CN2CC[C@]3(C(=O)Nc4ccccc43)[C@@H]2C[C@@H]1/C(=C\OC)C(=O)OC test_value=4.78

---

assay: Plasma pharmacokinetics in rats after oral administration of Yizhi tablets, EPT or EPG (HPLC-ESI/MS); assay type: in vivo, Sprague-Dawley rats; conditions: male, Sprague-Dawley, in vivo; rat plasma, oral EPG 3.6 g/kg, n = 6
quantity: Tmax (h)

smiles_notation=CC[C@H]1CN2CC[C@]3(C(=O)Nc4ccccc43)[C@@H]2C[C@@H]1/C(=C\OC)C(=O)OC u=h test_value=3.67

---

experiment: Plasma pharmacokinetics in rats after oral administration of Yizhi tablets, EPT or EPG (HPLC-ESI/MS); format: in vivo, Sprague-Dawley rats; details: male, Sprague-Dawley; rat plasma, oral EPT 5.4 g/kg, n = 6; read-out: MRT(0–∞) (converted)
quantity: MRT inf (h)

compound="OCc1ccc(O)cc1 [HBA, p-hydroxybenzyl alcohol]" u=h test_value=3.98

---

experiment: Plasma pharmacokinetics in rats after oral administration of Yizhi tablets, EPT or EPG (HPLC-ESI/MS); assay type: in vivo, Sprague-Dawley rats; details: male, Sprague-Dawley, in vivo; rat plasma, oral Yizhi tablets 9 g/kg, n = 6; read-out: MRT(0–∞) (converted)
quantity: MRT inf (h)

smiles_notation=OCc1ccc(O[C@@H]2O[C@H](CO)[C@@H](O)[C@H](O)[C@H]2O)cc1 quantity="MRT inf" test_value=3.29
smiles_notation=CC[C@H]1CN2CC[C@]3(C(=O)Nc4ccccc43)[C@@H]2C[C@@H]1/C(=C\OC)C(=O)OC quantity="MRT inf" test_value=4.59

---

assay: Plasma pharmacokinetics in rats after oral administration of Yizhi tablets, EPT or EPG (HPLC-ESI/MS); assay type: in vivo, Sprague-Dawley rats; conditions: male, Sprague-Dawley; rat plasma, oral EPT 5.4 g/kg, n = 6
quantity: Tmax (h)

compound="OCc1ccc(O)cc1 [HBA, p-hydroxybenzyl alcohol]" u=h test_value=1

---

assay: Plasma pharmacokinetics in rats after oral administration of Yizhi tablets, EPT or EPG (HPLC-ESI/MS); type: in vivo, Sprague-Dawley rats; conditions: male, Sprague-Dawley, in vivo; rat plasma, oral EPT 5.4 g/kg, n = 6
quantity: Cmax (µg/mL)

smiles_notation=OCc1ccc(O[C@@H]2O[C@H](CO)[C@@H](O)[C@H](O)[C@H]2O)cc1 test_value=188

---

experiment: Plasma pharmacokinetics in rats after oral administration of Yizhi tablets, EPT or EPG (HPLC-ESI/MS); type: in vivo, Sprague-Dawley rats; details: male, Sprague-Dawley, in vivo; rat plasma, oral EPG 3.6 g/kg, n = 6
quantity: AUC(0-inf) (ng·h/mL)

smiles_notation=CC[C@H]1CN2CC[C@]3(C(=O)Nc4ccccc43)[C@@H]2C[C@@H]1/C(=C\OC)C(=O)OC u=ng·h/mL test_value=43400

---

experiment: Plasma pharmacokinetics in rats after oral administration of Yizhi tablets, EPT or EPG (HPLC-ESI/MS); assay type: in vivo, Sprague-Dawley rats; conditions: male, Sprague-Dawley, in vivo; rat plasma, oral EPT 5.4 g/kg, n = 6
quantity: CL/F (mL/min/kg)

smiles_notation=OCc1ccc(O[C@@H]2O[C@H](CO)[C@@H](O)[C@H](O)[C@H]2O)cc1 test_value=2.32

---

assay: Plasma pharmacokinetics in rats after oral administration of Yizhi tablets, EPT or EPG (HPLC-ESI/MS); assay type: in vivo, Sprague-Dawley rats; conditions: male, Sprague-Dawley, in vivo; rat plasma, oral Yizhi tablets 9 g/kg, n = 6; read-out: MRT(0–t) (converted)
Measured MRT last of individual entries
quantity: MRT last (h)

smiles_notation=OCc1ccc(O[C@@H]2O[C@H](CO)[C@@H](O)[C@H](O)[C@H]2O)cc1 test_value=2.69
smiles_notation=CC[C@H]1CN2CC[C@]3(C(=O)Nc4ccccc43)[C@@H]2C[C@@H]1/C(=C\OC)C(=O)OC test_value=3.72

---

Assay: Plasma pharmacokinetics in rats after oral administration of Yizhi tablets, EPT or EPG (HPLC-ESI/MS)
Assay type: in vivo, Sprague-Dawley rats
Conditions: male, Sprague-Dawley, in vivo; rat plasma, oral EPG 3.6 g/kg, n = 6
Protocol: Male Sprague-Dawley rats (weight: 220 ± 30 g) were purchased from the animal laboratory centre at Tsinghua University (Beijing, China). […] Yizhi tablets, EPT, and EPG were separately suspended in 0.5% carboxymethylcellulose solution and administered orally to six conscious rats at doses of 9 g/kg for Yizhi tablets, 5.4 g/kg for EPT, and 3.6 g/kg for EPG, respectively. […] The concentrations of GAS, HBA, and RIN in plasma were determined as described above. […]
quantity: CL/F (mL/min/kg)

smiles_notation=CC[C@H]1CN2CC[C@]3(C(=O)Nc4ccccc43)[C@@H]2C[C@@H]1/C(=C\OC)C(=O)OC test_value=1.55

---

experiment: Plasma pharmacokinetics in rats after oral administration of Yizhi tablets, EPT or EPG (HPLC-ESI/MS); format: in vivo, Sprague-Dawley rats; details: male, Sprague-Dawley; rat plasma, oral Yizhi tablets 9 g/kg, n = 6; read-out: MRT(0–∞) (converted)
quantity: MRT inf (h)

compound="OCc1ccc(O)cc1 [HBA, p-hydroxybenzyl alcohol]" test_value=9.22

---

assay: Plasma pharmacokinetics in rats after oral administration of Yizhi tablets, EPT or EPG (HPLC-ESI/MS); assay type: in vivo, Sprague-Dawley rats; details: male, Sprague-Dawley, rat, in vivo, po, 3.6 g/kg, oral EPG 3.6 g/kg, n = 6
quantity: AUC(0-t)

smiles_notation=CC[C@H]1CN2CC[C@]3(C(=O)Nc4ccccc43)[C@@H]2C[C@@H]1/C(=C\OC)C(=O)OC quantity=AUC(0-t) test_value="40200 ng·h/mL"
